This collection of values is drawn from the supplement of paper PMC9170038.

apparent KD of MS2 coat protein values for the sequences below.
# Tested on: MS2 coat protein
# assay-protocol: apparent KD of MS2 coat protein; higher = weaker reporter binding
# condition-parameters: Eterna round: R107; input ligand: arginine 13.2 mM
measured-metric: apparent KD of MS2 coat protein

chain-sequence	target-system	measured-metric	result
CCGCCCACGAAUGAUACCAGCUAAAAUCAUGUACCAGACACAUGAGGAUCACCCAUGUAAAGCCCUUGGCAGCGUACGCCACCCG [e-theoB-?]	MS2 coat protein	apparent KD of MS2 coat protein	25.5 nM
ACAUGAGGAUCACCCAUGUAAUAAUCAGAAGGAGCGUGGAAUAACACAGGUAGGUCGCUGAUGUUUUGUUAAAAUUAUUCGUGAA [JR_SSArginiA_Sub002]	MS2 coat protein	apparent KD of MS2 coat protein	11.7 nM
UGUAUGUGAUUUGAUACCAGACCAGCGGGUGUUACUUGAGGAACACCCAAGUAGGUUUGGGUCCCUUGGCAGCAAAUCGCAUACU [SS Theo B #24 Ms9]	MS2 coat protein	apparent KD of MS2 coat protein	452 nM
GAGACGUCGGGAAGGAGCGCAUCAAAACCACACAUGAGGAUCACCCAUGUAUAAAUAUGCAUGCAGGUAGGUCGCCCGGUGUCCA [SS-ArgB16]	MS2 coat protein	apparent KD of MS2 coat protein	24.2 nM
GCAUCCUAGUCGGCCGCCACUGCACGAUCAGUGGCAGAUCGUCAACAUGAGGAUCACCCAUGUAGCAGGACCGGGACUAGGAUGC [(Trp1)-(TM)''-(TM)'-(Ms2)-(Trp2)_Design3]	MS2 coat protein	apparent KD of MS2 coat protein	18.5 nM
ACGAACGAUAGUGAUACCAGACGUACAUGAGGAUCACCCAUGUUGUAAACAUGGUUAAUAGUCCCUUGGCAGCACGAUAAGUUCG [JR_ExcTheophyB_Sub003]	MS2 coat protein	apparent KD of MS2 coat protein	104 nM
